# system: M. mazei mevalonate kinase (Methanosarcina mazei, UniProt Q8PW39)
# Sequence (Q8PW39 entry or part of it): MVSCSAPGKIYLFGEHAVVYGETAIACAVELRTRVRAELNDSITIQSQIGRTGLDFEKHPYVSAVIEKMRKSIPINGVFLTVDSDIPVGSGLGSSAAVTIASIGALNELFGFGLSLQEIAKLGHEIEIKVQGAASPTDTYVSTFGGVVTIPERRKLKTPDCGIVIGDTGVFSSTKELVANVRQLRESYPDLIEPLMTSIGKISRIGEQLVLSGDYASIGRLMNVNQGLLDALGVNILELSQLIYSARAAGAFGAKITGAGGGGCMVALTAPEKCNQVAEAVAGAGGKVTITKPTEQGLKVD
# assay_method_text: Mevalonate kinase coupled spectrophotometric kinetic and inhibition assay
# Format: biochemical
# experimental_parameters: inhibitor added at various concentrations to the reaction mix; read-out: Ki
pKi: −log10 of the molar value.
observation_type: pKi

Some solved cases for reference:
CC(O)(CCOP(=O)(O)O)CC(=O)O (stereo not drawn) [MVP, reference compound]    < 2.52
CC(C)=CCC/C(C)=C/COP(=O)(O)OP(=O)(O)O [GPP, geranyl pyrophosphate, reference compound]    < 2.30

// next item, pKi requested
Lookup: Look up pKi of C[C@@](O)(CCOP(=O)(O)OP(=O)(O)O)CC(=O)O [MVPP, reference compound] and report it.
Found: < 3.00

* * *

# system: M. mazei mevalonate kinase (Methanosarcina mazei, UniProt Q8PW39)
# assay_method_text: Mevalonate kinase coupled spectrophotometric kinetic and inhibition assay
# Type: biochemical
Documented Ki across a set of compounds

CC(C)=CCOP(=O)(O)OP(=O)(O)O [DMAPP, dimethylallyl diphosphate, reference compound]    > 5 mM

// next item, Ki requested
Lookup: Look up Ki of C=C(C)CCO[P@@](=O)(O)OP(=O)(O)O [IPP, isopentenyl pyrophosphate, reference compound] and report it.
Found: > 5 mM

* * *

# system: M. burtonii mevalonate kinase (Methanococcoides burtonii)
# Sequence (Q12TI0 entry or part of it): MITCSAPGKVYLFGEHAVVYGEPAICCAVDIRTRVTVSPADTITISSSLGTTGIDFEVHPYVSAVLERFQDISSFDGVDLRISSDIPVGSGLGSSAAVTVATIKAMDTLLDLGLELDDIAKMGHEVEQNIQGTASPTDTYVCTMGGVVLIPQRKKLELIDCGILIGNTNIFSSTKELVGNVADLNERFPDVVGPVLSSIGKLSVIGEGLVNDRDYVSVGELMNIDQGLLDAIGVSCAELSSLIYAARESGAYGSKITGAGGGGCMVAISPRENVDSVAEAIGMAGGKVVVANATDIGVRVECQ
# assay_method_text: Mevalonate kinase coupled spectrophotometric kinetic and inhibition assay
# Assay type: biochemical
# experimental_parameters: inhibitor added at various concentrations to the reaction mix; read-out: Ki
Documented Ki across a set of compounds

Some solved cases for reference:
CC(O)(CCOP(=O)(O)O)CC(=O)O (stereo not drawn) [MVP, reference compound]    > 3 mM
C[C@@](O)(CCOP(=O)(O)OP(=O)(O)O)CC(=O)O [MVPP, reference compound]    > 5 mM

// next item, Ki requested
Lookup: Look up Ki of CC(C)=CCC/C(C)=C/COP(=O)(O)OP(=O)(O)O [GPP, geranyl pyrophosphate, reference compound] and report it.
Found: > 5 mM

* * *

# system: UniProtKB Q12TI0
# assay_method_text: Mevalonate kinase coupled spectrophotometric kinetic and inhibition assay
# Type: biochemical
observation_type: Ki

C=C(C)CCO[P@@](=O)(O)OP(=O)(O)O [IPP, isopentenyl pyrophosphate, reference compound]    > 5 mM

// next item, Ki requested
Lookup: Look up Ki of CC(C)=CCOP(=O)(O)OP(=O)(O)O [DMAPP, dimethylallyl diphosphate, reference compound] and report it.
Found: > 5 mM
